System: HCT-116 colon
Test: NCI tumour cell line growth inhibition, 48 h
MEASURED PROPERTY: TGI (µM)
Give the quantity in µM, number only.

For the molecule shown here, `COc1cc2c(cc1OCCCN1CCN(c3cc(=O)oc4c(C)c(OC)ccc34)CC1)N=C[C@@H]1CCCN1C2=O` , give the reported TGI.
8.94

For the molecule shown here, COC1/C=C/C(C)C(C(C)C(OC)C(C)CCC(=O)C(C)C(C/C=C/N(C)C=O)OC)OC(=O)/C=C/C=C(\C)CC(OC)C(OC)C2=CC(=O)O[C@@H](C(C)C(OC)CC(OC)/C=C/C(C)C(O)C1)[C@H]2O (stereo not given in full) , give the reported TGI.
0.207

----------
Reported GI50 values follow for various compounds
Test system: UO-31 renal
Experiment: NCI tumour cell line growth inhibition, 48 h

Please review the following examples before continuing.
CN1C(=O)C(c2c[nH]c3ccccc23)=C(c2c(-c3c[nH]c4ccccc34)[nH]c3ccccc23)C1=O = 15.2 µM
O=[N+]([O-])/C=C/c1ccc([N+](=O)[O-])cc1 = 1.83 µM

Then there is this compound:
For the compound shown here, `CCC(=O)c1ccc2c(c1)N(CCCN1CCN(CCO)CC1)c1ccccc1S2` , give the reported GI50.
7.82 µM

----------
Tested on: TK-10 renal
Test: NCI tumour cell line growth inhibition, 48 h
Reported TGI values follow for various molecules
Give the quantity in µM, number only.

Please review the following examples before continuing.
O=C1C=CC(=O)c2c1ncc1c2nc2sccn21 = 33.5
O=C1OCC2=C1C(c1cccc(C(F)(F)F)c1)c1cc3c(cc1N2CCO)CCC3 (stereo unspecified) = 10.9

Then there is this molecule:
Lab note: need TGI for COC(=O)[C@]12CC=C3O[C@@H]4OC5(CCCCC5)O[C@@H]4[C@H]3C1C(=O)C=CC2=O (stereo partly specified) on TK-10 renal, anyone have it?
31.4

----------
Reported TGI values follow for various compounds
System: DU-145 prostate
Experiment: NCI tumour cell line growth inhibition, 48 h
Give the quantity in µM, number only.

COc1cc2c(cc1OC)-c1c(c3ccc([N+](=O)[O-])cc3c(=O)n1CCCN)C2=O = 1.37

Then there is this compound:
Lab note: need TGI for `Oc1cc(Cl)ccc1Cc1ccc(Cl)cc1O` on DU-145 prostate, anyone have it?
23.2

----------
Reported TGI values follow for various compounds
Tested on: SNB-75 CNS
Experiment: NCI tumour cell line growth inhibition, 48 h

Please review the following examples before continuing.
C=CCN(CC=C)CC(C(C)=O)C(c1ccccc1)c1c(O)c2ccccc2oc1=O (stereo not given) = > 100 µM
C/C=C\C(CC(=O)NCCC1CN(C(=O)c2ccccc2)c2ccccc21)CC(=O)OC (stereo not given) = > 100 µM
COc1cc(C(SCc2ccccc2)SCc2ccccc2)ccc1O = > 10 µM
CN(C)S(=O)(=O)c1ccc(Nc2ccc(O)c3c2C(=O)c2c([N+](=O)[O-])ccc(O)c2C3=O)cc1 = > 100 µM

For the compound shown here, `O=[N+]([O-])c1ccc(N=Nc2c(O)[nH]c3ccccc23)cc1` , give the reported TGI.
42.6 µM

----------
Tested on: PC-3 prostate
Test: NCI tumour cell line growth inhibition, 48 h
MEASURED PROPERTY: TGI

Cc1ccc(C[P+](c2ccccc2)(c2ccccc2)c2ccccc2)cc1 = > 100 µM

For the molecule shown here, CCOc1cc(C2SCC(=O)N2c2nc3cc4sc(N5C(=O)CSC5c5ccc(O)c(OCC)c5)nc4cc3s2)ccc1O (stereo unspecified) , give the reported TGI.
> 100 µM

For the molecule shown here, `CN(C)CCNC(=O)c1nc([N+](=O)[O-])cn1C` , give the reported TGI.
> 100 µM

For the molecule shown here, `COc1cc(C(SCc2ccccc2)SCc2ccccc2)ccc1O` , give the reported TGI.
> 10 µM

For the molecule shown here, CN(C)CCOC1(CC2CCCCC2)CCC(C(C)(C)C)CC1 (stereo unspecified) , give the reported TGI.
13.2 µM

For the molecule shown here, `O=C(/C=C/c1ccccc1O)/C=C/c1ccccc1O` , give the reported TGI.
3.38 µM

For the molecule shown here, COc1ccc2c(c1)[C@@]1(C)CCC3c4ccc(O)cc4CCC3C1C2 (stereo partly specified) , give the reported TGI.
42 µM

For the molecule shown here, `Cc1cn2c(=O)n(c1=O)Cc1ccccc1C2` , give the reported TGI.
> 100 µM

For the molecule shown here, `Cc1cc(N=C2C=C(Nc3cc(C)on3)C(=O)c3ccccc32)no1` , give the reported TGI.
> 100 µM

For the molecule shown here, `N#Cc1nc(/C=C/c2ccccc2)oc1N` , give the reported TGI.
> 100 µM

For the molecule shown here, `CO/N=C(/COc1c(-c2ccccc2)oc2ccccc2c1=O)c1ccc(F)cc1` , give the reported TGI.
> 100 µM
